Biological target: T1, recombinant Cad-11 EC1 human IgG1 fusion protein (R&D Systems Cat. No. 1790-CA-050) (human, UniProt P55287 54-617, limits assumed)
T1 construct: bought; also called recombinant human Cad-11 EC1; recombinant human Cad-11 fusion protein; not shown: human IgG1 part
T1 sequence: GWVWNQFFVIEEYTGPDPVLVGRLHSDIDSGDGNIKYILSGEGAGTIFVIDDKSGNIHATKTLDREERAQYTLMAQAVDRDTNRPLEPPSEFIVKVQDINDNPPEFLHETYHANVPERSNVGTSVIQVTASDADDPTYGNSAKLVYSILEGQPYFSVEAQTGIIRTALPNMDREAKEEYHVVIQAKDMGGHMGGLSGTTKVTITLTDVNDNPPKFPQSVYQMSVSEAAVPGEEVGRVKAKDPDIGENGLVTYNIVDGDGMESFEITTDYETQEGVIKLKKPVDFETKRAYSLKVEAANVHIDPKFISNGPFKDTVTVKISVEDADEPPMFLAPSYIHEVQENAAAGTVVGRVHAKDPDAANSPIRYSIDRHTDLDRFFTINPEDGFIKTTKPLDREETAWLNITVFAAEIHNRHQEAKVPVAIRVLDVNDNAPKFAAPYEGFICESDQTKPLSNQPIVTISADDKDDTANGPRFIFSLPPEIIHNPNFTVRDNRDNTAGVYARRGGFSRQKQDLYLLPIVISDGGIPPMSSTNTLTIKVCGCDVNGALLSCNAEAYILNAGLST
Test: competition ELISA against biotinylated SYN0012/H1M1 (competitor) on coated fusion protein; text says values are normalised to the IC50 of SYN0012
The binders listed here are annotated with their IC50.
Give me the value, and tack the unit on after it.

binder: SDP131 humanized anti-Cad-11 EC1 antibody (Vκ3/VH3) (antibody, IgG4, V domains shown, humanized IgG4 (S241P), kappa) VH: EVQLVQSGAEVKKPGASVKISCKASGYSFTGYFMNWVRQAPGQGLEWIGRINPYTGDTFYNQKFKGRATLTVDKSTSTAYMELSSLRSEDTAVYYCGRLGSRYWYFDVWGQGTTVTVSS VL: DVVMTQTPLSSPVTLGQPASISCRSSQSIIHSNGNTYLEWYLQKPGQSPQLLIYKVSNRFSGVPDRFSGSGSGTDFTLKISRVEAEDVGVYYCFQGSHVPWTFGQGTKLEIK
IC50: 0.55 µg/mL

Prompt line: Given SDP021 humanized anti-Cad-11 EC1 antibody (Vκ1/VH2) (antibody, IgG4, V domains shown, humanized IgG4 (S241P), kappa) VH: EVQLVQSGAEVKKPGASVKISCKASGYSFTGYFMNWVKQAPGQGLEWIGRINPYTGDTFYNQKFKGRATLTVDKSTSTAYMELSSLRSEDTAVYYCGRLGSRYWYFDVWGQGTTVTVSS VL: DVLMTQTPLSSPVTLGQPASISCRSSQSIIHSNGNTYLEWYLQKPGQSPQLLIYKVSNRFSGVPDRFTGSGSGTDFTLKISRVEAEDVGVYYCFQGSHVPWTFGQGTKLEIK , state its recorded IC50.
Response line: 0.67 µg/mL

Prompt line: Okay, and SDP071 humanized anti-Cad-11 EC1 antibody (Vκ2/VH2) (antibody, IgG4, V domains shown, humanized IgG4 (S241P), kappa) VH: EVQLVQSGAEVKKPGASVKISCKASGYSFTGYFMNWVKQAPGQGLEWIGRINPYTGDTFYNQKFKGRATLTVDKSTSTAYMELSSLRSEDTAVYYCGRLGSRYWYFDVWGQGTTVTVSS VL: DVLMTQTPLSSPVTLGQPASISCRSSQSIIHSNGNTYLEWYLQKPGQSPQLLIYKVSNRFSGVPDRFSGSGSGTDFTLKISRVEAEDVGVYYCFQGSHVPWTFGQGTKLEIK ?
Response line: 0.33 µg/mL

Prompt line: Okay, and SDP151 humanized anti-Cad-11 EC1 antibody (Vκ3/VH5) (antibody, IgG4, V domains shown, humanized IgG4 (S241P), kappa) VH: EVQLVQSGAEVKKPGASVKVSCKASGYSFTGYFMNWVRQAPGQGLEWIGRINPYTGDTFYNQKFKGRVTITVDKSTSTAYMELSSLRSEDTAVYYCGRLGSRYWYFDVWGQGTTVTVSS VL: DVVMTQTPLSSPVTLGQPASISCRSSQSIIHSNGNTYLEWYLQKPGQSPQLLIYKVSNRFSGVPDRFSGSGSGTDFTLKISRVEAEDVGVYYCFQGSHVPWTFGQGTKLEIK ?
Response line: 0.72 µg/mL

Prompt line: Okay, and SDP011 humanized anti-Cad-11 EC1 antibody (Vκ1/VH1) (antibody, IgG4, V domains shown, humanized IgG4 (S241P), kappa) VH: EVQLVQSGPELKKPGASVKISCKASGYSFTGYFMNWVKQAHGQGLEWIGRINPYTGDTFYNQKFKGRATLTVDKSSSTAYMELVSLSSEDSAVYYCGRLGSRYWYFDVWGQGTTVTVSS VL: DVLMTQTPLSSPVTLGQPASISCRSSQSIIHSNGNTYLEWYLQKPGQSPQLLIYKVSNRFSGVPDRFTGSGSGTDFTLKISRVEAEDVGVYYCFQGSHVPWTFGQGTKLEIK ?
Response line: 0.91 µg/mL
